# maps each entry to its IC50
Test system: HEL
Experiment: Inhibitory effect on replication of DNA virus CMV (Davis) on HEL cell line.
Format: functional, cell-based
Conditions: Homo sapiens
metric: IC50 (µg/mL)

smiles notation	recorded measurement
C[C@@H](O)C1=C[C@@H](n2cnc3c(N)ncnc32)[C@H](O)[C@@H]1O	0.03
Nc1ncnc2c1ncn2[C@@H]1C=C(CF)[C@@H](O)[C@H]1O	2.5
CSCC1=C[C@@H](n2cnc3c(N)ncnc32)[C@H](O)[C@@H]1O	1
Nc1ncnc2c1ncn2[C@@H]1C=C(CCl)[C@@H](O)[C@H]1O	0.7

---

Target: Adenosylhomocysteinase (Mus musculus)
Sequence (P50247 whole entry): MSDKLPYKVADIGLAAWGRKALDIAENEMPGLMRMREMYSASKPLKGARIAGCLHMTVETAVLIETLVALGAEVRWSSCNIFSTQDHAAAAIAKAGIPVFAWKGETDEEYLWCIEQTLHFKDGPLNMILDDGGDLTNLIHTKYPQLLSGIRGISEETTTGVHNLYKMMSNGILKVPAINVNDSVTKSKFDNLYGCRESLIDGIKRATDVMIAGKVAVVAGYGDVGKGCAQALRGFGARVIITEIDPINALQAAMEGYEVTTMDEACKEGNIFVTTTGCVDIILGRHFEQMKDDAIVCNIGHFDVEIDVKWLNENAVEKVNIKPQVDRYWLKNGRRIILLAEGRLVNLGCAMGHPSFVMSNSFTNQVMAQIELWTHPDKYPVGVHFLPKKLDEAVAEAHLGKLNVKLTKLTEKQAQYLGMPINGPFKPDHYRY
Assay: Inhibitory effect against L929 Cell S-adenosyl-L-homocysteine hydrolase
metric: Ki (nM)

smiles notation	recorded measurement
CC1=C[C@@H](n2cnc3c(N)ncnc32)[C@H](O)[C@@H]1O	150

Values compiled from ChEMBL document CHEMBL1126278.
